protocolNotes: Enzyme kinetics of toddalolactone metabolism in rabbit liver microsomes (oxidative metabolism and glucuronidation)
Type: in vitro ADME
testContext: rabbit, liver microsomes, pH 7.4, RAMs; glucuronide metabolism; P6 formation; Vmax/Km
observable: microsomal CLint (µL/min/mg)
One number for each entry, in µL/min/mg.

Value of microsomal CLint reported for the molecule "COc1cc2oc(=O)ccc2c(OC)c1C[C@@H](O)C(C)(C)O" is 0.12

====

protocolNotes: Pharmacokinetics study in rats after intravenous administration
Type: in vivo
testContext: male, Sprague-Dawley, rat, intravenous 10 mg/kg, plasma
observable: Tmax (min)
One number for each entry, in min.

Value of Tmax reported for the compound "COc1cc2oc(=O)ccc2c(OC)c1C[C@@H](O)C(C)(C)O" is 15
